Molecular target: human MAO-B enzyme (Homo sapiens (Human))
Sequence (P27338 whole entry): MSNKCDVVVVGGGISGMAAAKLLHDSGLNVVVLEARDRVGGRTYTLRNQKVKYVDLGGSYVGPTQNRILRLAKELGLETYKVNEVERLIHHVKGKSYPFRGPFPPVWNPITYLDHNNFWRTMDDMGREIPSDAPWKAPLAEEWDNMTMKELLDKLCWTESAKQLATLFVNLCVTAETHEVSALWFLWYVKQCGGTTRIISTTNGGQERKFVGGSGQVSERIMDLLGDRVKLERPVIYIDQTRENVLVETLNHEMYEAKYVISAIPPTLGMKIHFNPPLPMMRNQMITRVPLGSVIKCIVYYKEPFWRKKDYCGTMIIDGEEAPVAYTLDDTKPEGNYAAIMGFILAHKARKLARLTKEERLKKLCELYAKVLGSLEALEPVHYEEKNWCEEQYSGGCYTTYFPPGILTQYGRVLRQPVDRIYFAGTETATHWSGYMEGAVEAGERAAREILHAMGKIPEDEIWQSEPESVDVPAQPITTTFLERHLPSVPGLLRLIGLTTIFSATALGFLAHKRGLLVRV
Test: Screening of MAO-B activity inhibition (Amplex Red monoamine oxidase assay kit, benzylamine substrate)
Assay type: biochemical
Settings: 10 uM of the synthesized compound, pargyline-corrected
Procedure: A stock solution was prepared using a human MAO-B enzyme (purchased from Aldrich) and a Amplex® Red monoamine oxidase assay kit according to a preparation manual. […] First, the activity of MAO-B was determined using 10 uM of the synthesized compound. 96 wells were injected with positive and negative types, and the wile type. […] After about 2 to 3 hours, chromophoric degrees of the samples were measured. […]
Reported Remaining activity of MAO-B (%) values follow for various molecules

{"molecule": "Cc1ccc(-c2nc3ccc(N4CCCCC4)nc3o2)cc1 [Example 5-48]", "Remaining activity of MAO-B (%)": 46.2}
{"molecule": "c1ccc(-c2nc3ccc(NC4CCCCC4)nc3s2)cc1 [Example 5-52]", "Remaining activity of MAO-B (%)": 43}
{"molecule": "c1ccc(CNc2ccc3nc(-c4ccccc4)oc3n2)cc1 [Example 5-57]", "Remaining activity of MAO-B (%)": 63.1}
{"molecule": "CN(Cc1ccccc1)c1ccc2nc(-c3cccc(Cl)c3)oc2n1 [Example 5-67]", "Remaining activity of MAO-B (%)": 47.3}
{"molecule": "Clc1ccc(-c2nc3ccc(NCc4ccccc4)nc3o2)cc1 [Example 5-61]", "Remaining activity of MAO-B (%)": 46.4}
{"molecule": "O=[N+]([O-])c1cccc(-c2nc3ccc(N4CCCCC4)nc3o2)c1 [Example 5-43]", "Remaining activity of MAO-B (%)": "−21.5"}
{"molecule": "COc1ccc(-c2nc3ccc(N4CCCCC4)nc3o2)cc1 [Example 5-49]", "Remaining activity of MAO-B (%)": 15.8}
{"molecule": "c1ccc(-c2nc3ccc(N4CCCCC4)nc3o2)cc1 [Example 5-37]", "Remaining activity of MAO-B (%)": 3.09}
{"molecule": "c1ccc(-c2nc3ccc(N4CCCCC4)nc3s2)cc1 [Example 5-38]", "Remaining activity of MAO-B (%)": 1.8}
{"molecule": "Clc1ccc(-c2nc3ccc(N4CCCC4)nc3o2)cc1 [Example 5-35]", "Remaining activity of MAO-B (%)": 42.4}

Each recorded value in this set is attributed to patent US9469653B2.
